- System: 786-0 complex spheroid viability
- test-details: Anticancer human tumor 786-0 cell line growth inhibition; active = viability on the fitted dose curve at most 10% of control; inactive = the rest;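 note: spheroids exposed to agents for seven days before readout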
- condition-parameters: second compound 0.1 µM; first compound 0.0949 µM
Pick from active, inactive when you respond.

[in] Hey, what did the test say about COc1cc(C2c3cc4c(cc3C(OC3OC5COC(C)OC5C(O)C3O)C3COC(=O)C23)OCO4)cc(OC)c1O (configuration not stated) + NC1CC1c1ccc(-c2cccc(O)c2)cc1 ?
[out] inactive

[in] Identify the outcome logged in this assay for the molecule shown: Nc1ccccc1NC(=O)c1ccc(CNC(=O)OCc2cccnc2)cc1 + NC1CC1c1ccc(-c2cccc(O)c2)cc1
[out] inactive

[in] Test call for this molecule, please: CCN(c1cc(-c2ccc(CN3CCOCC3)cc2)cc(C(=O)NCc2c(C)cc(C)[nH]c2=O)c1C)C1CCOCC1 + NC1CCC(NC2CC2c2ccccc2)CC1
[out] inactive

[in] Any idea what this test logged for CCN(c1cc(-c2ccc(CN3CCOCC3)cc2)cc(C(=O)NCc2c(C)cc(C)[nH]c2=O)c1C)C1CCOCC1 + NC1CC1c1ccc(-c2cccc(O)c2)cc1 ?
[out] inactive

[in] Each molecule tested received a call. Report the one for O=C(C=Cc1cccc(S(=O)(=O)Nc2ccccc2)c1)NO + NC1CC1c1ccc(-c2cccc(O)c2)cc1 .
[out] inactive

[in] Tell me the assay call for Nc1ncn(C2CC(O)C(CO)S2)c(=O)n1 (configuration not stated) + NC1CC1c1ccc(-c2cccc(O)c2)cc1 please.
[out] inactive

[in] Please share the test call associated with CCc1c2c(nc3ccc(O)cc13)-c1cc3c(c(=O)n1C2)COC(=O)[C@]3(O)CC + NC1CCC(NC2CC2c2ccccc2)CC1 .
[out] active
